tgt: Corticotropin-releasing factor receptor 2/Corticotropin-releasing factor-binding protein (Homo sapiens, UniProt P24387+Q13324)
Sequence (Q13324 whole entry): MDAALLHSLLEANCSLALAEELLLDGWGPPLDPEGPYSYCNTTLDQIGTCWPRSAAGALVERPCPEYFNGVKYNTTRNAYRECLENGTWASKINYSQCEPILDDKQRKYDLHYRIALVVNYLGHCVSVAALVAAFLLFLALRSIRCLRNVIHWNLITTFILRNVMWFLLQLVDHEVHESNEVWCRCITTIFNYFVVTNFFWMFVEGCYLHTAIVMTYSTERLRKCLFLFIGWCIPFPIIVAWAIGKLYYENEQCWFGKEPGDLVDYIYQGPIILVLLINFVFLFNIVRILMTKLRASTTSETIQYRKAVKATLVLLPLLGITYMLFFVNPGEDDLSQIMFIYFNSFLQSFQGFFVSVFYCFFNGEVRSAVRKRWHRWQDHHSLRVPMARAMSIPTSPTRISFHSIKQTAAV
Sequence (P24387 whole entry): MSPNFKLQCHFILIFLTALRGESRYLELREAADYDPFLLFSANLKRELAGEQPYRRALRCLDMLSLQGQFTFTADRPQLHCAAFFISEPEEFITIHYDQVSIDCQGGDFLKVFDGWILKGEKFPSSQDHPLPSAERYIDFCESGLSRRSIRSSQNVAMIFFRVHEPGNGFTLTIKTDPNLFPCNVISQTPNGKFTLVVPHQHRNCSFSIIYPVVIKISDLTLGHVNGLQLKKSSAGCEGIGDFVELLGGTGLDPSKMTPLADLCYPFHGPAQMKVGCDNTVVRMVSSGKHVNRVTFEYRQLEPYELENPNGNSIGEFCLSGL
test: activators of CRF receptor 2 with binding protein – uHTS hits, confirmation (AID 602473)
Assay type: functional
setup conditions: read-out: EC50_Mean
Activity calls are given as the source filed them. No stated cut-off is given here; in the data, actives have a measured EC50 and inactives only a lower limit.
Outcomes: active, inactive

molecule=COc1ccc(NS(=O)(=O)c2c(C)n(C)c(=O)n(C)c2=O)cc1OC classification=inactive
molecule=CC(=O)c1c(N2CCCCC2)nc(=S)n(Cc2ccccc2)c1C classification=inactive
molecule=O=C(O)CCNC(=O)OCC1c2ccccc2-c2ccccc21 classification=inactive
molecule=COc1ccc(CNC(=O)Nc2cccs2)cc1OC classification=inactive
molecule=COc1cc(/C=C2\C(=N)N3N=C(S(C)(=O)=O)SC3=NC2=O)ccc1OCCOc1ccc(C)cc1 classification=inactive
molecule=CC(C)(C)OC(=O)N1CCN(c2ccc(CNC(=O)c3ccc(Cl)cc3)cc2)CC1 classification=inactive
molecule=COc1ccc(N(CC(=O)NCCc2ccc(OC)c(OC)c2)S(=O)(=O)c2c(C)noc2C)cc1 classification=inactive
molecule="CCC(C(=O)Nc1ccc(C(C)C)cc1)c1ccccc1 (configuration not stated)" classification=active
molecule="O=C1CSC(c2nn(-c3ccccc3)cc2-c2cc3ccccc3oc2=O)N1Cc1ccco1 (configuration not stated)" classification=inactive
molecule=O=C(NNC(=O)c1oc2ccccc2c1-n1cccc1)c1ccco1 classification=inactive
molecule=CCCCCCc1cc2cc(S(=O)(=O)c3ccc(F)cc3)c(=O)oc2cc1O classification=inactive
molecule=CCCCCN(C(=O)CCC(=O)OCC(=O)c1c(C)cc(C)cc1C)c1c(N)n(CCCC)c(=O)[nH]c1=O classification=inactive
molecule=Cc1ccc(OCCC(=O)O)cc1 classification=inactive
molecule=O=C(c1ccc(F)cc1)C1CCN(Cc2ccccc2F)CC1 classification=inactive
molecule=O=C(COC(=O)c1cc2ccccc2cc1O)NC1CCCCC1 classification=inactive
molecule=O=C(c1ccco1)N(Cc1cccc([N+](=O)[O-])c1)c1ccc(Br)cc1 classification=inactive
molecule=Cc1ccc(/C=N/NC(=S)Nc2cccc(S(=O)(=O)N(C)C)c2)o1 classification=inactive
molecule=COc1ccc(/C=C2\SC(NS(=O)(=O)c3cccs3)=NC2=O)cc1 classification=inactive
molecule=Cc1cc(S(=O)(=O)c2cc3ccc(O)c(C)c3oc2=O)ccc1F classification=active
molecule=COc1ccc(CNC(=O)CN(C)S(=O)(=O)c2ccc3c(c2)n(C)c(=O)c(=O)n3C)cc1 classification=inactive
molecule="CCOC(=O)c1ccc(NC(=S)N2CCSC2c2ccc(Br)cc2)cc1 (configuration not stated)" classification=active
molecule="Cc1cccc(N(C(=O)c2sc(C)nc2C)C(C(=O)NCC2CCCO2)c2ccccc2)c1 (configuration not stated)" classification=inactive
